target: htau40 (Homo sapiens, UniProt P10636); test: Biacore X100 SPR of anti-tau mAbs on immobilised htau40; format: binding; settings: mAb, Table 27, immobilised hT40
Sequence (P10636 1-441 isoform P10636-8): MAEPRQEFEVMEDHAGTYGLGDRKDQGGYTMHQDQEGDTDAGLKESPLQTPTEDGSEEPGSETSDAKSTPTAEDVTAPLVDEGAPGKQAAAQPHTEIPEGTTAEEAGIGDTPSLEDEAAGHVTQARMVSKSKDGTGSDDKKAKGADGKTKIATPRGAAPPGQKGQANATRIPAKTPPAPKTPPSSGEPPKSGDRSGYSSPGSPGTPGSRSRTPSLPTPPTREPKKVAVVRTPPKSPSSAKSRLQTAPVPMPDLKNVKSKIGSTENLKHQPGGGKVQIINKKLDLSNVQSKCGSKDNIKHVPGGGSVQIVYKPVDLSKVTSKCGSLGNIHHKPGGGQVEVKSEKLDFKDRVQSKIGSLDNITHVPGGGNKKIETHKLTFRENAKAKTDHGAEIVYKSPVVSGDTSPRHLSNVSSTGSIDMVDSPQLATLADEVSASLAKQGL
As shown below, each of these molecules has a reported kd value.
Give the number; s⁻¹ is assumed, so skip it.

Known kd results, listed for orientation:
MOLECULE: CE3: anti-tau clone, SEQ ID NO: 367 (protein, CE3 amino acid sequence) scFv: QVRLQESGPSLVKPSQTLSVTCTVSGFSLISNAVGWVRQAPGKVPESLAGCSSDGKCYYNSALKSRLDITRDTSKNQISLSLSSVTTDDAAVYYCTRGYYPVYGYDYLGTIDYWGPGLLVTVSSEGKSSGASGESKVDDQAVLTQPSSVSGSLGQRVSITCSGSSSNVGRNDVAWFQQLPGSGLRTIIYGTTSRPSGIPDRFSGSKSGVTATLTIDSLQAEDEADYFCASGDSSAINDIFGSGTRLTVLG
UNIT: s⁻¹
kd: 0.001718

MOLECULE: NS2A1: anti-tau clone, SEQ ID NO: 220 (protein, NS2A1 amino acid sequence) scFv: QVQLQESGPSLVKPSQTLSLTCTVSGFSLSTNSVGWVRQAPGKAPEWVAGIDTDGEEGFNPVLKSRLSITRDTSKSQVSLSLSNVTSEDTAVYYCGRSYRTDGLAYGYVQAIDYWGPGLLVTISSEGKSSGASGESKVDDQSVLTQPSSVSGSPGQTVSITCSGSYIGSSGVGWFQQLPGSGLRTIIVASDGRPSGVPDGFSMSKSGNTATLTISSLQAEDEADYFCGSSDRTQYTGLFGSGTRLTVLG
UNIT: s⁻¹
kd: 0.002621

MOLECULE: S1G2: anti-tau clone, SEQ ID NO: 81 (protein, S1G2 amino acid sequence) scFv: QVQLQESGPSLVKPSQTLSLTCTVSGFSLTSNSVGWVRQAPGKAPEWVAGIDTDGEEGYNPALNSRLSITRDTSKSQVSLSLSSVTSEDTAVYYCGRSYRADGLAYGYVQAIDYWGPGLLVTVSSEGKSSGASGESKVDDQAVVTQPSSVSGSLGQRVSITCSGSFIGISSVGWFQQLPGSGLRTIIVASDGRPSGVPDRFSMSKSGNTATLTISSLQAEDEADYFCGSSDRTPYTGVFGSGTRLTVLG
UNIT: s⁻¹
kd: 4.748e-05

Proceeding to the next molecule to report its kd.
Note kd for the molecule shown: CE2: anti-tau clone referred to as CE2 or E1B8, SEQ ID NO: 366 (protein, CE2/E1B8 amino acid sequence) scFv: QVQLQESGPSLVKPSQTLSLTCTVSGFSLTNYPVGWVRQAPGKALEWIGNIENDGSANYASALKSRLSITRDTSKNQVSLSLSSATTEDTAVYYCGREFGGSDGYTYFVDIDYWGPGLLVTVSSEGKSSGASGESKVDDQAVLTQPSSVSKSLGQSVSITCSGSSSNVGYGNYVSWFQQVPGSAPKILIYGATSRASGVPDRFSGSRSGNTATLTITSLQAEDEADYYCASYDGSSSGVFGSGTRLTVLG
0.005218
